Recorded values, source the supplement of paper PMC12420376.

System: KURAMOCHI
assay-explanation: drug sensitivity score (DSS2) on cancer cell count; higher = more sensitive; extreme values may be limits of the assay
condition-details: co-cultured fibroblast: BJHTERT; 72 h
Tag: Satisfied if measured drug sensitivity score is not below 4 DSS, Not satisfied if it is.

Answered cases to consult:
CC[C@@H]1[C@H](F)C(=O)N[C@@H]1COc1nccc2cc(C(N)=O)c(OC)cc12 | Not satisfied
CNC(=O)c1ccccc1Nc1cc(Nc2ccc(N3CCOCC3)cc2OC)ncc1C(F)(F)F [VS-4718] | Satisfied
O=c1[nH]cc(F)c(=O)[nH]1 [Fluorouracil] | Not satisfied
CONC(=O)c1ccccc1Nc1cc(Nc2cc(C)nn2C(C)C)ncc1Cl | Not satisfied
CS(=O)(=O)c1ccc(C(=O)Nc2ccc(Cl)c(-c3ccccn3)c2)c(Cl)c1 [Vismodegib] | Not satisfied
CCOC(=O)C1=CCCC[C@H]1S(=O)(=O)Nc1ccc(F)cc1Cl [Resatorvid] | Not satisfied
Cc1nn(C)c(COc2ccc(N3CCN(S(=O)(=O)N(C)C)CC3)cc2)c1-c1cccc2c(CCCOc3cccc4ccccc34)c(C(=O)O)n(CCN3CCOCC3)c12 | Satisfied

Let's switch to this molecule now.
Hi team, for O=C1NC(=O)[C@@H](c2cn3c4c(cccc24)CCC3)[C@@H]1c1c[nH]c2ccccc12 [Tivantinib] , is the recorded drug sensitivity score at or above 4 DSS?
Satisfied

====

Listed below: drug sensitivity score values for each entry.
Test system: OVCAR8
assay-explanation: drug sensitivity score (DSS2) on cancer cell count; higher = more sensitive; extreme values may be limits of the assay
condition-details: co-cultured fibroblast: WI38; 72 h

// known answers, use as guide
CCC1(c2ccc(N)cc2)CCC(=O)NC1=O (configuration not stated) [Aminoglutethimide] | 0.4 DSS
C=C1C[C@@H]2CC[C@@]34C[C@H]5O[C@H]6[C@@H](O3)[C@H]3O[C@H](CC[C@@H]3O[C@H]6[C@H]5O4)CC(=O)C[C@@H]3[C@@H](OC)[C@@H](C[C@H](O)CN)O[C@H]3C[C@H]3O[C@@H](CC[C@@H]1O2)C[C@@H](C)C3=C [Eribulin] | 29.9 DSS
Cc1nc2cccc(N)c2c(=O)n1C1CCC(=O)NC1=O (configuration not stated) [CC122] | 0 DSS

Item Nc1ncnc2c1nc(Cl)n2[C@@H]1O[C@H](CO)[C@@H](O)[C@H]1O [8-chloro-adenosine] has what recorded drug sensitivity score?
9.9 DSS

// query drug sensitivity score value for entry CN1CCN(c2ccc(C(=O)Nc3n[nH]c4ccc(Cc5cc(F)cc(F)c5)cc34)c(NC3CCOCC3)c2)CC1 [Entrectinib]
4 DSS

Given the entry CNC(=O)c1ccc(C)c(-n2c(C)cc(OCc3ccc(F)cc3F)c(Br)c2=O)c1 , report its measured drug sensitivity score.
0 DSS

Given the entry O=C(/C=C/c1cccnc1)NCCCCC1CCN(C(=O)c2ccccc2)CC1 [Daporinad] , report its measured drug sensitivity score.
22.2 DSS

====

System: KURAMOCHI
assay-explanation: drug sensitivity score (DSS2) on cancer cell count; higher = more sensitive; extreme values may be limits of the assay
condition-details: co-cultured fibroblast: BJHTERT; 72 h
Recorded drug sensitivity score values for a group of compounds are listed next.
Your answer should be a plain number; it is taken to be in DSS.

What value of measured drug sensitivity score is listed for O=C1c2c(O)ccc(O)c2C(=O)c2c(NCCNCCO)ccc(NCCNCCO)c21 [Mitoxantrone] ?
17.1

For O=C1CCc2c(Oc3ccc4c(c3)[C@@H]3[C@H](O4)[C@H]3c3nc4cc(C(F)(F)F)ccc4[nH]3)ccnc2N1 [BGB-283] , what is its reported drug sensitivity score?
6.9

Report drug sensitivity score for C=C(c1ccc(C(=O)O)cc1)c1cc2c(cc1C)C(C)(C)CCC2(C)C [Bexarotene] please.
0.4

Recorded drug sensitivity score for COc1cc2c(cc1OC(C)C)[C@H](c1ccc(Cl)cc1)N(c1ccc(N(C)C[C@H]3CC[C@H](N4CCN(C)C(=O)C4)CC3)cc1)C(=O)C2 [NVP-CGM097] , please?
7.7
